Data origin: ChEMBL document CHEMBL4257559

# method summary: Cmax in chronic hypoxia-induced pulmonary hypertension model of Sprague-Dawley rat at 10 mg/kg, ip after 30 to 600 mins by HPLC analysis
# Assay type: ADME, organism-based
# Design: dose 10 mg/kg, route intraperitoneal
# experimental parameters: in vivo
endpoint: Cmax (ng/mL)
Expressed in ng/mL, but write only the number.

Exam item: Can you look up the measured Cmax of CC(C)(O)[C@@H]1CC[C@](C)([C@H]2[C@@H](O)C[C@@]3(C)[C@@H]4C[C@H](O[C@@H]5O[C@H](CO)[C@@H](O)[C@H](O)[C@H]5O)[C@H]5C(C)(C)[C@@H](O[C@@H]6OC[C@@H](O)[C@H](O)[C@H]6O)CC[C@@]56C[C@@]46CC[C@]23C)O1 for me?
Marked response: 7270

====

# method summary: Cmax in chronic hypoxia-induced pulmonary hypertension model of Sprague-Dawley rat at 50 mg/kg, ip after 30 to 600 mins by HPLC analysis
# Assay type: ADME, organism-based
# Design: dose 50 mg/kg, route intraperitoneal
# experimental parameters: in vivo
endpoint: Cmax (ng/mL)
Expressed in ng/mL, but write only the number.

Exam item: Can you look up the measured Cmax of CC(C)(O)[C@@H]1CC[C@](C)([C@H]2[C@@H](O)C[C@@]3(C)[C@@H]4C[C@H](O[C@@H]5O[C@H](CO)[C@@H](O)[C@H](O)[C@H]5O)[C@H]5C(C)(C)[C@@H](O[C@@H]6OC[C@@H](O)[C@H](O)[C@H]6O)CC[C@@]56C[C@@]46CC[C@]23C)O1 for me?
Marked response: 25200

====

# method summary: Tmax in chronic hypoxia-induced pulmonary hypertension model of Sprague-Dawley rat at 50 mg/kg, ip after 30 to 600 mins by HPLC analysis
# Format: ADME, organism-based
# experimental parameters: in vivo
endpoint: Tmax (h)
Expressed in h, but write only the number.

Exam item: Can you look up the measured Tmax of CC(C)(O)[C@@H]1CC[C@](C)([C@H]2[C@@H](O)C[C@@]3(C)[C@@H]4C[C@H](O[C@@H]5O[C@H](CO)[C@@H](O)[C@H](O)[C@H]5O)[C@H]5C(C)(C)[C@@H](O[C@@H]6OC[C@@H](O)[C@H](O)[C@H]6O)CC[C@@]56C[C@@]46CC[C@]23C)O1 for me?
Marked response: 1
